Reported inhibition in vivo at 50 mg/kg is given for each of the following compounds.
System: Rattus norvegicus
Assay: Compound was evaluated in vivo for the percent inhibition of IL-1 generation in rat CMC-LPS air pouch model at 50 mg/Kg concentration (oral administration)
Format: functional

CCCc1cccc2c(/C=C/C(=O)O)cc(OC)c(O)c12; < 25%
CCc1cccc2c(/C=C(/Cc3ccccc3)C(=O)O)cc(OC)c(O)c12; < 25%
CC/C(=C/c1cc(OC)c(O)c2c(CC)cccc12)C(=O)O; 43%
CCCc1cccc2c(/C=C(\C)C(=O)O)cc(OC)c(O)c12; < 25%
COc1cc(/C=C(/C)C(=O)O)c2cccc(C(C)C)c2c1O; 29%

Test system Rattus norvegicus; read-out inhibition in vivo at 50 mg/kg; what value for "CCCc1cccc2c(/C=C(/C)C(=O)O)cc(OC)c(O)c12" ?
33%

And for "CCCc1cccc2c(/C=C(/CC)C(=O)O)cc(OC)c(O)c12" ?
47%

What about "CCc1cccc2c(/C=C(/C)C(=O)O)cc(OC)c(O)c12" ?
65%

* * *

Species on record: Rattus norvegicus
Assay: In vitro inhibitory activity against IL-1 generation by using rat exudated macrophages
Type: functional
pIC50: −log10 of the molar value.
Each entry below carries its reported pIC50.

Worked cases, answers included:
CCCC/C(=C\C(=O)O)c1cc(OC)c(O)c2c(CC)cccc12; < 5.00
COc1cc(/C=C/C(=O)O)c2cccc(C)c2c1O; > 6.00

API: the following record is the query input.
Name the recorded pIC50 for "CCc1cccc2c(/C(C)=C\C(=O)O)cc(OC)c(O)c12" .
< 5.00

* * *

pIC50: recorded values
Species: Rattus norvegicus
Assay: In vitro inhibitory activity against IL-1 generation by using rat exudated macrophages
Format: functional
pIC50: −log10 of the molar value.

Examples from the recorded data:
CCCc1cccc2c(/C=C/C(=O)O)cc(OC)c(O)c12; > 6.00
CCc1cccc2c(/C(C)=C/C(=O)O)cc(OC)c(O)c12; < 5.00
CCc1c(OC)c(O)c2ccccc2c1/C=C/C(=O)O; < 5.00
CCCc1cccc2c(/C=C(/CC)C(=O)O)cc(OC)c(O)c12; > 6.00

In the following, a different compound is considered.
Name the reported pIC50 value associated with the compound "CCCc1cccc2c(/C=C(\CC)C(=O)O)cc(OC)c(O)c12"
> 6.00

Source of measurements: ChEMBL document CHEMBL1126114
